Where do the numbers come from? From patent US6653127B1.

# measuredOn: T1, 5A/5B (P8P8') substrate DTEDVVCC*SMSYTWTG-K
# T1 chain: DTEDVVCCSMYTWTGK
measureName: kcat (s⁻¹)
Please respond with the number in s⁻¹ and leave the unit unwritten.

# annotated cases, reported kcat shown
His-NS4A21-32-GSGS-NS33-181 (protein) MGSSHHHHHHSSGLVPRGSHMGSVVIVGRIILSGSGSITAYSQQTRGLLGCIITSLTGRDKNQVEGEVQVVSTATQSFLATCVNGVCWTVYHGAGSKTLAGPKGPITQMYTNVDQDLVGWQAPPGARSLTPCTCGSSDLYLVTRHADVIPVRRRGDSRGSLLSPRPVSYLKGSSGGPLLCPSGHAVGIFRAAVCTRGVAKAVDFVPVESMETTMRS
0.15
His-NS31-181 + NS4A Peptide (non-covalent complex) (protein) chain 1: MAPITAYSQQTRGLLGCIITSLTGRDKNQVEGEVQVVSTATQSFLATCVNGVCWTVYHGAGSKTLAGPKGPITQMYTNVDQDLVGWQAPPGARSLTPCTCGSSDLYLVTRHADVIPVRRRGDSRGSLLSPRPVSYLKGSSGGPLLCPSGHAVGIFRAAVCTRGVAKAVDFVPVESMETTMR chain 2: KKGSVVIVGRIVLSGKPAIIPKK
0.05
His-NS4A21-32-GSGS-NS33-181/I18K (protein) MGSSHHHHHHSSGLVPRGSHMGSVVIVGRIILSGSGSITAYSQQTRGLLGCIKTSLTGRDKNQVEGEVQVVSTATQSFLATCVNGVCWTVYHGAGSKTLAGPKGPITQMYTNVDQDLVGWQAPPGARSLTPCTCGSSDLYLVTRHADVIPVRRRGDSRGSLLSPRPVSYLKGSSGGPLLCPSGHAVGIFRAAVCTRGVAKAVDFVPVESMETTMRS
0.167

Turning now to a further record.
Can you share its kcat? I mean this protein: His-NS4A21-32-GSGS-NS33-181/I17K (protein) MGSSHHHHHHSSGLVPRGSHMGSVVIVGRIILSGSGSITAYSQQTRGLLGCKITSLTGRDKNQVEGEVQVVSTATQSFLATCVNGVCWTVYHGAGSKTLAGPKGPITQMYTNVDQDLVGWQAPPGARSLTPCTCGSSDLYLVTRHADVIPVRRRGDSRGSLLSPRPVSYLKGSSGGPLLCPSGHAVGIFRAAVCTRGVAKAVDFVPVESMETTMRS
0.267
